- target-entity: Heat shock protein 75 kDa, mitochondrial (Homo sapiens, UniProt Q12931)
- Sequence (Q12931 whole entry): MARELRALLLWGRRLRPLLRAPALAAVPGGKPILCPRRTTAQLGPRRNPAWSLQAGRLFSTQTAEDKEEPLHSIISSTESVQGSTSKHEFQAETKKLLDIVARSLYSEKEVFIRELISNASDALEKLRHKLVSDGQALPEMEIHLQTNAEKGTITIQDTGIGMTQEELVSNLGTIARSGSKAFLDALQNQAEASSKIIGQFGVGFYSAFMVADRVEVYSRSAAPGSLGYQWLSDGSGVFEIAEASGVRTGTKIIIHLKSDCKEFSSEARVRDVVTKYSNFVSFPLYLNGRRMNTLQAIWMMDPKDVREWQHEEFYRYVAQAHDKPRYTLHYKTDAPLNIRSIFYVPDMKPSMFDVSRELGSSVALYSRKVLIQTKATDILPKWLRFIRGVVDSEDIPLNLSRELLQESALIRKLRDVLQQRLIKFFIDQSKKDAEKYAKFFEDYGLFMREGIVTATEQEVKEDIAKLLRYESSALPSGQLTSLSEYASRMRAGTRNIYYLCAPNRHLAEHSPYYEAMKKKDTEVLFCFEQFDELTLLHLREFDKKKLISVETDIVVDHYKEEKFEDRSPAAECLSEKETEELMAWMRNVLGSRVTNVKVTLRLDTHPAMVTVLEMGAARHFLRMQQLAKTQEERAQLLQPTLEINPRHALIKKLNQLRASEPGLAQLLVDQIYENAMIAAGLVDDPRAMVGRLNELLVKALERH
- assay-name: Binding affinity to TRAP1 (unknown origin) assessed as dissociation constant incubated for 15 mins by MST analysis
readout-type: pKd
The quantity pKd is defined as the negative base-10 logarithm of the molar concentration.

* CN(CCCCCCCC[P+](c1ccccc1)(c1ccccc1)c1ccccc1)C(=O)c1ccccc1C1=c2cc3c4c(c2Oc2c1cc1c5c2CCCN5CCC1)CCC[N+]=4CCC3 | 6.43

Now for another entry.
Please state recorded pKd (tested on Heat shock protein 75 kDa, mitochondrial (Homo sapiens, UniProt Q12931)) of CN(C)CCOc1ccc(/C(=C(/CCCCCCCCCC[P+](c2ccccc2)(c2ccccc2)c2ccccc2)c2ccccc2)c2ccccc2)cc1
5.36

----------
Let's go through some Kd measurements on Heat shock protein 75 kDa, mitochondrial (Homo sapiens, UniProt Q12931) together.
Reply with just the number (in nM).

Here are 3 compounds together with their reported answers.
* CCN(CC)c1ccc2c(-c3ccccc3C(=O)N(C)CCCCCCCC[P+](c3ccccc3)(c3ccccc3)c3ccccc3)c3ccc(=[N+](CC)CC)cc-3oc2c1 | 2190
* CCN(CC)c1ccc2c(-c3ccccc3C(=O)N(C)CCCCCC[P+](c3ccccc3)(c3ccccc3)c3ccccc3)c3ccc(=[N+](CC)CC)cc-3oc2c1 | 810
* CN(CCCCCC[P+](c1ccccc1)(c1ccccc1)c1ccccc1)C(=O)c1ccccc1C1=c2cc3c4c(c2Oc2c1cc1c5c2CCCN5CCC1)CCC[N+]=4CCC3 | 1520

Now for another entry.
Please state recorded Kd (tested on Heat shock protein 75 kDa, mitochondrial (Homo sapiens, UniProt Q12931)) of CN(CCCCCCCC[P+](c1ccccc1)(c1ccccc1)c1ccccc1)C(=O)c1ccccc1C1=c2cc3c4c(c2Oc2c1cc1c5c2CCCN5CCC1)CCC[N+]=4CCC3
270

----------
Each entry below carries its reported pIC50.
Target protein (sequence): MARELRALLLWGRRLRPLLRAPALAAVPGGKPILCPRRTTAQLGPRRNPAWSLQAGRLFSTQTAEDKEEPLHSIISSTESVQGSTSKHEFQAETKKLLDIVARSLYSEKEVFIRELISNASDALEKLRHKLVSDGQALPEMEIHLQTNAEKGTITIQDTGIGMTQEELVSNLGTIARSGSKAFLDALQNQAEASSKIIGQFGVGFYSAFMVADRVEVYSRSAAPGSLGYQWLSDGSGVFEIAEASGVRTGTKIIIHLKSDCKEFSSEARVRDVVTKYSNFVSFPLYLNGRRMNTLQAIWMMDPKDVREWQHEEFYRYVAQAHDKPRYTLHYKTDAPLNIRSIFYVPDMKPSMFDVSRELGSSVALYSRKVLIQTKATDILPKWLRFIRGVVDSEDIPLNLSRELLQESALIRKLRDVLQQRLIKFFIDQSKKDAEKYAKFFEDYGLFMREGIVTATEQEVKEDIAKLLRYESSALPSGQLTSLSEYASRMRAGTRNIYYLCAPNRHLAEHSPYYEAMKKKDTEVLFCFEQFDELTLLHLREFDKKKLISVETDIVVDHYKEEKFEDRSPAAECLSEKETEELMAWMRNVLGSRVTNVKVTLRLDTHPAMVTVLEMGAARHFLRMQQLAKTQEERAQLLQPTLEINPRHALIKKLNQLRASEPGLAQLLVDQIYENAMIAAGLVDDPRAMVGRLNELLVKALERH
The quantity pIC50 is defined as the negative base-10 logarithm of the molar concentration.

* CN(C)CCOc1ccc(/C(=C(/CCCCCCCCCC[P+](c2ccccc2)(c2ccccc2)c2ccccc2)c2ccccc2)c2ccccc2)cc1 | 5.60
* Cc1c(C)c2c(c(C)c1O)CCC(C)(CCCCCCCCCC[P+](c1ccccc1)(c1ccccc1)c1ccccc1)O2 (stereo not given) | 5.07

Which pIC50 is listed for COc1c(C)c(CCCCCCCCCC[P+](c2ccccc2)(c2ccccc2)c2ccccc2)c(OC)c(OC)c1OC ?
5.42

----------
- System: HeLa
- assay-name: Cytotoxicity against human HeLa cells assessed as reduction in cell viability incubated for 24 hrs by MTT assay
readout-type: pIC50
The quantity pIC50 is defined as the negative base-10 logarithm of the molar concentration.

Here are 3 compounds together with their reported answers.
- CN(C)CCOc1ccc(/C(=C(/CCCCCCCCCC[P+](c2ccccc2)(c2ccccc2)c2ccccc2)c2ccccc2)c2ccccc2)cc1: 6.03
- O=C(c1ccccc1)C(O)(CCC[P+](c1ccccc1)(c1ccccc1)c1ccccc1)c1ccccc1 (configuration not stated): 4.75
- CC1(C)CC(C(=O)OCCCCCCCCCC[P+](c2ccccc2)(c2ccccc2)c2ccccc2)C(C)(C)N1O (configuration not stated): 5.29

Please state recorded pIC50 (tested on HeLa) of CC(C)(C)[Si](C)(C)O[C@H]1CC[C@]2(C)[C@H]1[C@H]2CCC[P+](c1ccccc1)(c1ccccc1)c1ccccc1
5.78

Please state recorded pIC50 (tested on HeLa) of COc1c(Br)c(C)c(CCCCCCCCCC[P+](c2ccccc2)(c2ccccc2)c2ccccc2)c(OC)c1OC
5.79

Please state recorded pIC50 (tested on HeLa) of O=C(CCCCCCCCCC[P+](c1ccccc1)(c1ccccc1)c1ccccc1)Nc1nccs1
5.20

Please state recorded pIC50 (tested on HeLa) of COc1c(C)c(CCCCCCCCCC[P+](c2ccccc2)(c2ccccc2)c2ccccc2)c(OC)c(OC)c1OC
5.78

Please state recorded pIC50 (tested on HeLa) of COc1cc(C)c(CCCCCCCCCC[P+](c2ccccc2)(c2ccccc2)c2ccccc2)cc1OC
5.49

Please state recorded pIC50 (tested on HeLa) of COC1=C(OC)C(=O)C(CCCCCCCCCC[P+](c2ccccc2)(c2ccccc2)c2ccccc2)=C(C)C1=O
5.37

Please state recorded pIC50 (tested on HeLa) of Cc1c(C)c2c(c(C)c1O)CCC(C)(CCCCCCCCCC[P+](c1ccccc1)(c1ccccc1)c1ccccc1)O2 (configuration not stated)
5.84
